Documented t1/2 across a set of binders
# measurement.target: T1, Fel d1 (B-A)-mmH (cat (Felis domesticus))
# T1 construct: Expressed in CHO cells; also called rFel d1.mmH; rFel d1-mmH
# T1 sequence (chain, as listed by the source limits assumed): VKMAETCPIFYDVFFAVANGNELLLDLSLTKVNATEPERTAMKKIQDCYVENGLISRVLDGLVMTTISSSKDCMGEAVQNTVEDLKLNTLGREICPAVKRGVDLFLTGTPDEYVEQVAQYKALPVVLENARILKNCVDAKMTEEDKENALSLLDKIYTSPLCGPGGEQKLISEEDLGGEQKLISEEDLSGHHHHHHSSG
# test.description: SPR, mAb captured, Fel d1 (B-A)-mmH injected, 25 C;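 note: rate constants obtained by fitting sensorgrams to a one-to-one binding model, Kd computed as koff over kon, half-life derived from koff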
Number in min, nothing else.

>  <binder>
H4H2636P (antibody, human IgG4, V domains shown, human IgG4 Fc (prefix H4H); also called REGN1909) VH: EVQLVESGGGLVQPGGSLRLSCAASGFTFSSYAMSWVRQAPGKGLEWVSAISGRGYNADYADSVKGRFTISRDNSKNTLYLQMNSLRAEDTAVYYCAKLEYFDYWGQGTLVTVSS VL: DIQMTQSPSTLSASVGDRVTITCRASQSISSWLAWYQQKPGKAPKLLIYKASSLESGVPSRFSGSGSGTDFTLTISSLRPEDFATYYCQQYNSYPLTFGGGTKVEIK

>  <value.units>
min

>  <t1/2>
49

$$$$
>  <binder>
H4H2645P (antibody, human IgG4, V domains shown, human IgG4 Fc (prefix H4H)) VH: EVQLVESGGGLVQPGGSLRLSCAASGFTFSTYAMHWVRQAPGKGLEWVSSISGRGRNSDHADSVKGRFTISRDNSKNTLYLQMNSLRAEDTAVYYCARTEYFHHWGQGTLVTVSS VL: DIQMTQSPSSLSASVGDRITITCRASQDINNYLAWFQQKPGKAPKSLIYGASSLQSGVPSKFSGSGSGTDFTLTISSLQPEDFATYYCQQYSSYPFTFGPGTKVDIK

>  <value.units>
min

>  <t1/2>
65

$$$$
>  <binder>
H4H2594S (antibody, human IgG4, V domains shown, human IgG4 Fc (prefix H4H)) VH: EVQLVESGGGLVKPGGSLRLSCAASGFTFSDYYMNWIRQAPGKGLEWVSYISSSGSSIYYADSVKGRFTISRDNAKNSLYLLMNSLRAEDTAVYYCARDGKYNSSPGDYWGQGTLVTVSS VL: DIQMTQSPSSLSASVGDRVTIACRASQGISNYLAWFQQKPGKAPKSLIYAASSLQSGVPSKFSGSGSGTDFTLTISSLQPEDFATYYCQQYNSYPLTFGGGTKVEIKR

>  <value.units>
min

>  <t1/2>
22

$$$$

Could you now look at the following binder, please?
I am curious: what t1/2 value has been reported for H4H2636B (antibody, human IgG4, V domains shown, human IgG4 Fc (prefix H4H)) VH: EVQLVESGGGLVQPGGSLRLSCAASGFTFSSYAMSWVRQAPGKGLEWVSAISGRGYNADYADSVKGRFTISRDNSKNTLYLQMNSLRAEDTAVYYCAKLEYFDYWGQGTTVTVSS VL: DIQLTQSPSTLSASVGDRVTITCRASQSISSWLAWYQQKPGKAPKLLIYKASSLESGVPSRFSGSGSGTDFTLTISSLRPEDFATYYCQQYNSYPLTFGGGTKVEIKR ?
51
